Assay: protein stability index of a GFP-peptide fusion (GPS, HEK-293T) (PSI 1-6); higher = more stable;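 further: 24-mer peptide tiles fused after GFP, lentivirally expressed, FACS-sorted into six equal bins by GFP/DsRed ratio, decoded by Illumina sequencing, PSI is the read-weighted mean bin number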
Conditions: treatment: DMSO; c terminus: a fixed tail appended
Here, each record is paired with measured protein stability index data.

In the examples that follow, each entry is paired with its recorded protein stability index.
sequence.code | recorded.metric | reading
AVKGSLGSDLGGPLPTDPMLGLAL [TSPAN10] | protein stability index | 3.16
SLEKLLASEPLPWDLRFRIIHETA [RIPK4] | protein stability index | 2.18
SPASHVDVDLTIHGRHIDCPATWG [FOXJ1] | protein stability index | 3.14

Challenge: Entry under review: APAKYTVFDAEGYVKPQSCIDIVI [MOSPD3] . Reported protein stability index?
Response given: 2.83

Challenge: Give its protein stability index value. Item: LIFHRHPVAQSTDAIRGKVGYTRG [SPSB1]
Response given: 2.33

Challenge: Would you mind telling me what protein stability index value was observed for MSLKCLAARAVRANDINYQDQIPR [FEM1B] ?
Response given: 3.49

----------
Assay: protein stability index of a GFP-peptide fusion (GPS, HEK-293T) (PSI 1-6); higher = more stable
Conditions: treatment: DMSO; c terminus: a fixed tail appended
Short version: protein stability index at least 3 is Yes, less is No.

Sample answers from the record:
sequence.code | cat
KRPYAKELETVDFKDKLEETKGQI [SERPINB5] | Yes
KEMSKVWNDLRPKLSCLFAGPHST [SNX8] | No
ARNIGFKVNSKKMLGKYNTPVSYR [ACSBG2] | No
SRSNGSSPEARDARSPSGPSGSLE [TRIM29] | Yes
DGKSLVSVTKEGLELPEDEEEKKK [HSP90AB1] | Yes

Challenge: Please tell me: is the sequence ASGLTGFIGLEVVAQLFNCMVGLL [ATL3] at or over 3 in terms of protein stability index?
Response given: No

Challenge: Has GKPLYLIFRNLCQMQEDNSSFSLL [INTS3] a recorded protein stability index greater than or equal to 3?
Response given: No

Challenge: Decide: protein stability index of HSSELTEQKLRACLEGSINEHSAH [RPAIN] >= 3?
Response given: Yes

Challenge: Determine whether this sequence has protein stability index no lower than 3: AEKRKRQAEIENKRRQLEDERRQL [PALM]
Response given: Yes

Challenge: In plain terms: is recorded protein stability index at least 3 for LKLWEIGKIIGGMWRDLTDEEKQE [SMARCE1] ?
Response given: No

----------
Experiment: protein stability index of a GFP-peptide fusion (GPS, HEK-293T) (PSI 1-6); higher = more stable
Conditions: treatment: MLN4924 1 uM, 8 h; c terminus: a fixed tail appended
recorded.metric: protein stability index
// print number alone

sequence.code | protein stability index
HWKTWLAIKCSPSLHVDDRERMEL [RIPK4] | 2.53
QEKEELRELNDRLAVYIDKVRSLE [LMNB1] | 3.9
VWVTHEEMETLETSTKTDSEEGSW [PPFIA4] | 4.68
LNCPFCGARLGGFNFVSTPKCSCG [RNF180] | 3.28
YRCIREARYTMPSSLLAPAKHLIA [PLK2] | 2.48

Attention now turns to another entry.
Challenge: Entry under review: SPASHVDVDLTIHGRHIDCPATWG [FOXJ1] . Reported protein stability index?
Response given: 3.28

----------
Test: protein stability index of a GFP-peptide fusion (GPS, HEK-293T) (PSI 1-6); higher = more stable
Details: treatment: DMSO; c terminus: a fixed tail appended
Listed here: items and their measured protein stability index.
Keep it simple and answer with nothing but the number.

Some solved entries appear below for comparison.
sequence.code | protein stability index
STLKEVKPTVFIGVPQIWEKIHEM [ACSBG2] | 2.1
KDMSESQDEVPDEVENQFILRLPL [TAF7L] | 4.41
VLCGVVMDRSLVQDAPLSDCTETI [ADD1] | 3.11
RAQLPKYQRNLPRPGQAPIGNPPV [ZNF207] | 3.75
ILFYCHFPDLLLTKRDSFLKRLYR [ALG2] | 2.81
KQGELPREVRRAQARLLNPSATRA [NOP53] | 4.42
GSPFGLEEPQWVPDKECRRCMQCD [ZFYVE21] | 4.1
PEERLEKQNEKLNNQEEETEFKEL [CCDC89] | 5.67

Challenge: Fill in the blank: the reported protein stability index of LTSELDPEKEQEIETIKIIETEDQ [MIA2] is ____.
Response given: 4.84

Challenge: # get_value(readout='protein stability index', item= KYEQAFESSQKYKEGKYIIELNHM [YPEL3] )
Response given: 2.71

Challenge: Name the recorded protein stability index for DPRYELPSRKYISTKAIPEKYGAV [ZBED1] .
Response given: 3.55

----------
Assay: protein stability index of a GFP-peptide fusion (GPS, HEK-293T) (PSI 1-6); higher = more stable
Conditions: treatment: MLN4924 1 uM, 8 h; c terminus: a fixed tail appended
# if value of protein stability index reaches 4, tag YES; if it stays below, tag NO

For orientation, consider the following solved cases.
sequence.code | cat
GANKEVQELLERGLLQLDHRGLRC [RSAD1] | NO
KESRAQTLQNGRRHIHHLGNQLQL [BRF1] | NO
KKEEPEPETEAVSSSQEIPTMPQP [ZMYND11] | YES

Challenge: Item VVETINAAIGVTTSPVLPSLIQLL [HACD3] with protein stability index of 4 or above?
Response given: NO

Challenge: Does the sequence SSDHLFLFGGFTTDKQPLSDAWTY [KLHDC2] have recorded protein stability index that is 4 or more?
Response given: NO

Challenge: Kindly determine if protein stability index recorded for SRDRRRSSDRSRDSSHERTESQLT [BTBD10] is above or exactly 4.
Response given: YES

Challenge: // inclusive: protein stability index at least 4? input: LEFKLKSNDNEERLQVVKLLAKMF [PDS5B]
Response given: NO

Challenge: Form field: protein stability index at least 4? Entry: SERDKRPEGYNLKDEEGRLRDPAT [PPP2R2B]
Response given: YES

Challenge: Could you verify whether the entry KPDSVGLPPCAVRNLQDLARIYIR [PCMTD1] shows protein stability index of no less than 4?
Response given: NO

Challenge: I'd appreciate it if you could say whether KPGFLAPRDLPKHTPLISKSQSLR [RASAL3] has protein stability index at least equal to 4.
Response given: NO

Challenge: Kindly determine if protein stability index recorded for VCTVQFLISKGANVNRTTANNDHT [ANKRD17] is above or exactly 4.
Response given: NO

Challenge: I'd appreciate it if you could say whether LEPPEEEIIEGNTKSHIMLVQRQM [NECAB1] has protein stability index at least equal to 4.
Response given: YES

Challenge: Quick check, protein stability index >= 4? QSLRCDLIRYICGVVHPSNEVLSS [INTS3]
Response given: NO

----------
Assay: protein stability index of a GFP-peptide fusion (GPS, HEK-293T) (PSI 1-6); higher = more stable
Conditions: treatment: MLN4924 1 uM, 8 h; c terminus: a fixed tail appended
Returns one of y or n; y when protein stability index is >= 4.

sequence.code | cat
PVRAYDFLLKFLLVGDSDVGKGEI [RAB40B] | n
RQVWLLFEYPESSGPARVIAIVSV [KCNA1] | n

Challenge: # check: protein stability index of LQGDLKTLMGKLKLKNTVTIQQEK [SASS6] is greater than or equal to 4
Response given: n

Challenge: Check the entry LPNASADSLGGSQEMVQRPQPHRN [TRAF3IP2] : does protein stability index equal or exceed 4?
Response given: y

Challenge: Given AYTHGCILHPELTVDSMIPAYATT [GDAP1] , state whether its protein stability index is at least 4.
Response given: n

Challenge: Threshold query (protein stability index >= 4) on QNPVLSKLLMADQDSPLDLTVRKS [LCOR]
Response given: y

Challenge: Threshold query (protein stability index >= 4) on DCLAAWEEWLLVGTKQGHLLLYRI [VPS39]
Response given: n

Challenge: Could you verify whether the entry PHQPVTAITRVSDRFSGETSAAAL [SMTNL2] shows protein stability index of no less than 4?
Response given: y

Challenge: Does the reported protein stability index for GNGVHVCNVKYKRWALLSCRGKKP [KLHDC10] fall at or above the 4 mark?
Response given: n

Challenge: Item EIIELRRTVNALEIELQAQHNLRD [KRT34] with protein stability index of 4 or above?
Response given: n

Challenge: Form field: protein stability index at least 4? Entry: SARYLSQCQEAEQARAELTAQHQR [FBF1]
Response given: y

Challenge: Could you tell me if the measured protein stability index of EEINKNISDFGRQQLLPPFPSLHQ [EHMT1] reaches 4 or more?
Response given: n

Challenge: State whether the measured protein stability index reaches 4, counting equality as reaching it, for VQELLPAACLLQLKGVKQACCEFL [KLHL12]
Response given: n

Challenge: Confirm if protein stability index reported for the sequence FRNIKQEPFSARVLVLCVFNSILP [SOAT1] is 4 or above.
Response given: n

Challenge: Say whether LDLSKNKLQQLPADFGRLVNLQHL [LRRC59] shows protein stability index of 4 or more.
Response given: n

Challenge: // inclusive: protein stability index at least 4? input: FLSYYRLTRFLSRVIKCDPDCLRA [CCND1]
Response given: n

Challenge: Is protein stability index at least 4? Consider NPYYDPLQWKSSHFERRDNMNDNF [CHGB]
Response given: n

Challenge: I'd appreciate it if you could say whether KEDASEFQILKYLFQIDVYDFMNS [MIA2] has protein stability index at least equal to 4.
Response given: n
